Please provide measured z-score for the entries that follow.
- Assay summary: optical density shifts of acrAB sulA E. coli – strain DRC41, OD650, 48 h, E. coli filamentation inducer project, primary screen (AID 1152);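 also: E. coli MC1000 strain DRC41 lacking acrAB efflux pump and sulA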
- Condition notes: higher = more signal, called active from +8 up or from −8 down
Active and inactive are the calls of the source.

-- ask Requested field: z-score. Item: CC(C)C[C@H]1NC(=O)[C@H](C)NC(=O)[C@@]23C(=O)N[C@@H](Cc4ccccc4)C2[C@H](C)[C@@]2(C)O[C@H]2C3/C=C/C/C=C\CNC1=O (some centres not stated)
-- reply -1.07 (inactive)

-- ask Requested field: z-score. Item: `C[N+](C)(C)CCCCCCNC(=O)[C@@H]1C[C@@H]2C(=O)NCC(=O)N2[C@@H]1c1cccc(OCCO)c1`
-- reply 1.73 (inactive)

-- ask Requested field: z-score. Item: `NC(=O)NCC#Cc1ccc2c(c1)[C@]1(C(=O)N2)[C@H](c2ccc(OCCO)cc2)N2[C@H](c3ccccc3)[C@H](c3ccccc3)OC(=O)[C@H]2[C@@H]1C(=O)N1CCCCCCC1`
-- reply -1.89 (inactive)

-- ask Requested field: z-score. Item: `C=C(/C(=C/C[C@@H](OC(C)=O)c1ccccc1OCCO)c1cnc2ccccc2c1)C(C)C`
-- reply 0.0675 (inactive)

-- ask Requested field: z-score. Item: C[C@]12C(=O)N(CCCO)[C@@H]3C(=O)N(c4ccc(Cl)cc4)CC=CC31O[C@@H]1/C=C\CCCOC(=O)C12 (some centres not stated)
-- reply -0.511 (inactive)

-- ask Requested field: z-score. Item: `CCCC[C@H]1OB(O)C[C@H]2C1=C(COc1ccccc1)Cn1c(=O)n(-c3ccccc3)c(=O)n12`
-- reply 0.4 (inactive)

-- ask Requested field: z-score. Item: `CCCCC(=C=CC[C@H](O)c1ccccc1OCCO)C[C@H](O)c1ccccn1`
-- reply 1.47 (inactive)

---

Please provide measured composite z-score for the entries that follow.
- Assay summary: small molecules captured by biotinylated probe aFSTL3 – biochemical, small-molecule microarray, fluorescence 635/667, stem cell growth factor project, primary screen (AID 1064);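 also: measures binding of the biotinylated anti-FSTL3 antibody to printed compounds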
- Condition notes: higher = more signal
Respond with the number and no other words.

-- ask Requested field: composite z-score. Item: `CCCC=C(CCC)[C@@H](NS(=O)(=O)c1cccc2cccnc12)c1ccc(C(=O)OC)cc1`
-- reply 3.16

-- ask Requested field: composite z-score. Item: `CCOC(=O)C[C@H]1[C@H](OC(=O)Cc2ccc3c(c2)OCO3)[C@@H](NC(=O)c2ccccc2)c2cc(OCCCO)ccc2N1C(=O)c1ccc2ccccc2n1`
-- reply -0.146

-- ask Requested field: composite z-score. Item: COc1cc(NN2C(C(O)c3ccc(I)cc3)C=CC3C(=O)N(C)C(=O)C32)cc(OC)c1OC (configuration not stated)
-- reply 0.495

-- ask Requested field: composite z-score. Item: `COC(=O)[C@@]1(Cc2ccc(OC)cc2)[C@H]2c3cc(C(=O)N(C)C)n(Cc4cc(C)n(C)n4)c3C[C@H]2CN1C(=O)c1ccccc1`
-- reply 0.223

-- ask Requested field: composite z-score. Item: O=C1NC(=O)C2C1C=CC(C(O)CCc1ccccc1)N2Nc1ccccn1 (configuration not stated)
-- reply 0.313

-- ask Requested field: composite z-score. Item: `C[N+](C)(C)CCCCNC(=O)[C@H]1C[C@H]2C(=O)NCC(=O)N2[C@H]1c1ccc(O)cc1`
-- reply -0.392

-- ask Requested field: composite z-score. Item: `COCCOC(=O)N1C(=O)[C@@]2(c3cc(C#CC4(O)CCCCCC4)ccc31)[C@H](C(=O)N1CCc3cc(OC)c(OC)cc3C1)[C@H]1C(=O)O[C@H](c3ccccc3)[C@H](c3ccccc3)N1[C@@H]2c1ccccc1OCCO`
-- reply -0.0526
